Measured values drawn from PubChem BioAssay (NCI) for this set.

System: M14 melanoma
Experiment: NCI-60 one-dose screen, 48 h (100 = growth as untreated, 0 = no growth, -100 = all killed)
Conditions: 10 µM unless noted
Procedure: Growth inhibition of the M14 human tumor cell line is measured as a screen for anti-cancer activity. Cells are grown in 96 well plates and exposed to the test compound for 48 hours. Compounds are tested at a single concentration, which is 10^-5 M for most compounds. The reported endpoint is percent growth (GI% or GIPRCNT), where numbers from 0 - 100% represent growth inhibition, and numbers from -100% - 0 represent cell death. For example, a value of 40 represents 60% growth inhibition. […]
This is part of a sample that, as a whole, favours compounds with a hit. Of some 83,000 tested, about 20% had one in any assay.
Labelling field: enter condition met if recorded growth is less than -80%. Enter condition not met if it equals or exceeds that cut-off.

O=c1nc(-c2ccccc2)c2cc(-c3ccc(C(F)(F)F)nc3)ccc2[nH]1	condition not met

input: Determine whether this molecule shows growth lower than -80% (ties excluded): `CCOC(=O)c1c(C)nc2ccccc2c1/C=C/c1ccccc1`
output: condition not met

input: Determine whether this molecule shows growth lower than -80% (ties excluded): `COc1cc(OC)c(/C=C/C(=O)c2c(O)cc(OC)c(C3CCN(C)CC3)c2OC)c(OC)c1`
output: condition met

input: Determine whether this molecule shows growth lower than -80% (ties excluded): `Cc1cc(Nc2ccc(C(=O)N3CCCC3)cc2)nc(NCCCNc2ccnc3cc(Cl)ccc23)n1`
output: condition not met

###

System: OVCAR-3 ovarian
Assay: NCI-60 one-dose screen, 48 h
Conditions: 10 µM unless noted
This is part of a sample that, as a whole, favours compounds with a hit. Of some 83,000 tested, about 20% had one in any assay. Activity calls are given as the source filed them. The calls were made as follows: active = growth percent below 10; inactive = the rest.
Pick one and only one: label 1 for active, label 0 for inactive

Record excerpt, results attached:
CCCCNC(=O)Oc1ccc(/C(=C(/C)Cc2ccc(OC)cc2)c2ccc(OCCN3CCCCCC3)cc2)cc1	label 0
CNC(=O)c1cc(Oc2cccc3nc(NC(=O)Nc4cc(C(F)(F)F)ccc4Cl)ccc23)ccn1	label 0
CC1(C)CC(=O)c2c(nn(-c3ccc(Br)cc3)c2-c2cn(-c3ccccc3)nc2-c2cccnc2)C1	label 0

input: Called result for COC(=O)C(Cc1ccccc1)NC(=O)c1ccc(NC(=O)c2[nH]c(C)c(Cl)c2Cl)c(OC(C)C)c1 (centres undefined)
output: label 0

input: Called result for `CSC(SC)=C(C#N)c1nc2ccccc2s1`
output: label 0

input: Called result for CCN1C(=O)N(CC)C2C1NN=c1s/c(=C\c3ccc(C(F)(F)F)cc3)c(=O)n12 (centres undefined)
output: label 1

input: Called result for `Cc1c2ccncc2c(C)c2c1c1cc(CO)ccc1n2C`
output: label 1

input: Called result for `C[C@H](C(=O)N(CCc1ccc(Cl)c(Cl)c1)Cc1cncs1)[C@@H]1CC[C@H](C[C@H](C)n2cc(CN3CCC(c4ccc(Cl)cc4)CC3)nn2)O1`
output: label 0

input: Called result for `O=C(CN1CCCCCC1)Nc1nc2ccc(NCc3ccc(Cl)cc3)cc2s1`
output: label 0

###

Test system: COLO 205 colon
Experiment: NCI-60 one-dose screen, 48 h
Details: 10 µM unless noted
About 83,000 compounds went through this panel and 20% of them were active in at least one assay; those are over-represented in the sample as a whole. Activity calls are given as the source filed them. The calls were made as follows: active = growth percent below 10; inactive = the rest.
Pick one and only one: true (active), false (inactive)

Record excerpt, results attached:
COC(=O)c1cc(Br)ccc1O	false
O=C(CSc1nc(-c2ccccc2)cc(=O)[nH]1)Nc1nc(-c2ccccc2)cs1	false
COc1ccc(C(O)c2cc3c(N)c(C(=O)Nc4cccc(Cl)c4C)sc3nc2C)cc1 (centres undefined)	true
COc1ccc(Oc2nc(Nc3ccc(N4CCOCC4)cc3)ncc2NC(=O)Nc2cc(OC)cc(OC)c2)cc1	true

input: Called result for CCN1C(=O)N(CC)C2C1NN=c1s/c(=C\c3ccc(C(F)(F)F)cc3)c(=O)n12 (centres undefined)
output: true

input: Called result for `COc1ccc2c(c1)c(-c1nc(-c3c[nH]c4ncccc34)cs1)cn2CCO`
output: false

input: Called result for `C/C(=N\O)c1ccc(NC(=O)CSc2nnc(-c3cc(-c4ccc(S(N)(=O)=O)cc4)nc4ccccc34)n2-c2ccccc2)cc1`
output: false

input: Called result for `N#C/C(=C\c1ccc(-c2cccc(C(F)(F)F)c2)o1)c1ccccc1`
output: false

input: Called result for `CCOc1cccc(/C=N/NC(=O)c2cccc(Nc3ccnc(C(F)(F)F)c3)c2)c1O`
output: false
